The entries below come with measured log10 koff values attached.
# assayedTarget: T1, monomeric human CSF1R ectodomain protein (human, UniProt P07333 20-517)
# T1 construct: also called biotinylated monomeric human CSF1R
# assaySummary: SPR Biacore, IgG captured, monomeric CSF1R analyte
Quick note: numbers are log10 of koff, with s⁻¹ as the unit.

{"binder": "MH10 (antibody, human IgG4, V domains shown, Deimmunized MH5 derivative, human IgG4(S228P)/Ckappa IgG) VH: QVQLVQSGAEVKKPGSSVKVSCKASGYTFSSNYMIWVRQAPGQGLEWMGDINPYNGGANYAQKFQGRVTITADESTSTAYMELSSLRSEDTAVYYCAREGPYFSNLYVMDYWGQGTLVTVSS VL: EIVLTQSPATLSLSPGERATLSCRASQSVSYEGENYLNWYQQKPGQAPRSAIYAASNRATGIPARFSGSGSGTDFTLTISSPEPEDFAVYYCQLSNEDLLTFGGGTKVEIK", "log10 koff": -3.06}
{"binder": "MH24 (antibody, human IgG4, V domains shown, Deimmunized MH5 derivative, human IgG4(S228P)/Ckappa IgG) VH: QVQLVQSGAEVKKPGSSVKVSCKASGYTFSSHYMIWVRQAPGQGLEWMGDINPYNGGANYAQKFQGRVTITADESTSTAYMELSSLRSEDTAVYYCAREGPYFSNLYVMDYWGQGTLVTVSS VL: EIVLTQSPATLSLSPGERATLSCRASQSVSYEGENYLNWYQQKPGQAPRSLIYAASDRATGIPARFSGSGSGTDFTLTISSPEPEDFAVYYCQLSNEDLLTFGGGTKVEIK", "log10 koff": -3.01}
{"binder": "murine anti-CSF1R antibody 0301 (mu0301), v-domains in human IgG4(S228P) format (antibody, V domains shown) VH: EVQLQQSGPELVRPGASVKMSCKASGYTFTDNYMIWVKQSHGKSLEWIGDINPYNGGTTFNQKFKGKATLTVEKSSSTAYMQLNSLTSEDSAVYYCARESPYFSNLYVMDYWGQGTSVTVSS VL: NIVLTQSPASLAVSLGQRATISCKASQSVDYDGDNYMNWYQQKPGQPPKLLIYAASNLESGIPARFSGSGSGTDFTLNIHPVEEEDAATYYCHLSNEDLSTFGGGTKLEIK", "log10 koff": -4.16}

Can you look up the measured log10 koff of MH17 (antibody, human IgG4, V domains shown, Deimmunized MH5 derivative, human IgG4(S228P)/Ckappa IgG) VH: QVQLVQSGAEVKKPGSSVKVSCKASGYTFSSAYMIWVRQAPGQGLEWMGDINPYNGGANYAQKFQGRVTITADESTSTAYMELSSLRSEDTAVYYCAREGPYFSNLYVMDYWGQGTLVTVSS VL: EIVLTQSPATLSLSPGERATLSCRASQSVSYEGENYLNWYQQKPGQAPRLLIYAASNRATGIPARFSGSGSGTDFTLTISSPEPEDFAVYYCQLSNEDLLTFGGGTKVEIK for me?
-2.95

Fill in: log10 koff of MH13 (antibody, human IgG4, V domains shown, Deimmunized MH5 derivative, human IgG4(S228P)/Ckappa IgG) VH: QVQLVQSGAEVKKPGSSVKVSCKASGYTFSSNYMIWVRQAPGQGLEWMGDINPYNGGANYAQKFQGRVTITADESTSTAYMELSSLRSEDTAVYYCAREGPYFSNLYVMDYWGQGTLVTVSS VL: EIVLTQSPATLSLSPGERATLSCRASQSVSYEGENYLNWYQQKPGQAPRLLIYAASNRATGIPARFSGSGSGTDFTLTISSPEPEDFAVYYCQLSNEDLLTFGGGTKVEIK is ___
-3.17

Need log10 koff of MH25 (antibody, human IgG4, V domains shown, Deimmunized MH5 derivative, human IgG4(S228P)/Ckappa IgG) VH: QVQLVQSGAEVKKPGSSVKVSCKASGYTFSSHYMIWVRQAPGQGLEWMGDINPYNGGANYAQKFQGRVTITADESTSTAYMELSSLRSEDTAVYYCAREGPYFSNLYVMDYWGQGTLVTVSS VL: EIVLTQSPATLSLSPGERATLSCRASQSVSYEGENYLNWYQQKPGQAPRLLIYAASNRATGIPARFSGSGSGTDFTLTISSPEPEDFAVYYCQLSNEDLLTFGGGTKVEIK , thanks.
-3.04
